Where do these numbers come from? They come from patent US20120094909A1.

target.or.system: T1, human PCSK9 (proprotein convertase subtilisin kexin type 9) (human, UniProt Q8NBP7 31-692)
T1 construct: Directly immobilized (SPR ProteOn), biotinylated (BLI), or in solution, depending on the assay; also called hPCSK9
T1 sequence (Q8NBP7 31-692 limits assumed): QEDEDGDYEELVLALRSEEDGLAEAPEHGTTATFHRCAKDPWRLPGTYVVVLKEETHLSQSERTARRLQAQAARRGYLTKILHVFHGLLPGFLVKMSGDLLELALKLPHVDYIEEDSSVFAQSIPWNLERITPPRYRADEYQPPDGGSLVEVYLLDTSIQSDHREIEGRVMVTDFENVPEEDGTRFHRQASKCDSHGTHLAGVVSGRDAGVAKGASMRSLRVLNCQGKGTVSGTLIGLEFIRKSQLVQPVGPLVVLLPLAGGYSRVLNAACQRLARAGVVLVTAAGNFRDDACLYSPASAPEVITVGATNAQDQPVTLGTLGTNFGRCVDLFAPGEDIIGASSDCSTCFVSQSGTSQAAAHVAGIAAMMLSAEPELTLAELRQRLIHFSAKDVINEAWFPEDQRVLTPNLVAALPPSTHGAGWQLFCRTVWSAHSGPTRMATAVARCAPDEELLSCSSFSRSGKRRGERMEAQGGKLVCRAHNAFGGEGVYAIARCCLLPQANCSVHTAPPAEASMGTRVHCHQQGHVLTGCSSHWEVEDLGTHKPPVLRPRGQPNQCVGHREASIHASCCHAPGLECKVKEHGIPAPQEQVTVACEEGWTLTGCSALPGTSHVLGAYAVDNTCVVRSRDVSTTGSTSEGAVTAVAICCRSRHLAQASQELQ
protocol.summary: BLI, biotinylated hPCSK9 on sensor tips
measure.name: Kd (nM)

Worked examples, 2 binders total:
2382D05 (designed binder, Anti-PCSK9 Adnectin, His6-tagged; Same entry as 2451B06) MGVSDVPRDLEVVAATPTSLLISWDAPADGGYGYYRITYGETGGNSPVQEFTVPVSKGTATISGLKPGVDYTITVYAVEFDFPGAGYYHRPISINYRTEIDKPSQHHHHHH: 0.314
1922G04 (designed binder, Anti-PCSK9 Adnectin, His6-tagged; also called ATI001057; ATI-1057) MGVSDVPRDLEVVAATPTSLLISWRPPSHAYGYYRITYGETGGNSPVQEFTVPIGKGTATISGLKPGVDYTITVYAVEYPWKGSGYYHRPISINYRTEIDKPSQHHHHHH: 0.255

[P] 2382H09 (designed binder, Anti-PCSK9 Adnectin, His6-tagged) MGVSDVPRDLEVVAATPTSLLISWDAPAAAYGYYRITYGETGGNSPVQEFTVPSSKGTATISGLKPGVDYTITVYAVEFDFPGSGYYHRPISINYRTEIDKPSQHHHHHH
[Q] 2382F05 (designed binder, Anti-PCSK9 Adnectin, His6-tagged) MGVSDVPRDLEVVAATPTSLLISWDAPAEAGKHYGYYRITYGETGGNSPVQEFTVPVSKGTATISGLKPGVDYTITVYAVEFDFPGAGYYHRPISINYRTEIDKPSQHHHHHH
Which of the two gives a bigger number for Kd: P or Q ? // respond with label for picked entry
Q
(Q: 4.54 nM, P: 1.86 nM)
